experimentalSystem: T1, human IL-18 binding protein (human, UniProt O95998 31-194)
T1 sequence (looked up): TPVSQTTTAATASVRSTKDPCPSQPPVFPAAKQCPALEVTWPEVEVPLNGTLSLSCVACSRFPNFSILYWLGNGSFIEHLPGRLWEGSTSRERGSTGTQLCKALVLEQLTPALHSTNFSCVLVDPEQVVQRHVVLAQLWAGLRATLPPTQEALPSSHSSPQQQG
assayNotes: cell-based or functional assay
Each entry below carries its recorded Ratio (-BP/+BP), DF-1,000,000.

Take a look at these entries with their results.
binder	Ratio (-BP/+BP), DF-1,000,000
yeast display IL-18 variant K53T, S55F (ligand) YFGKLESKLSVIRNLNDQVLFIDQGNRPLFEDMTDSDMRDNAPRTIFIISMYTDFQPRGMAVTISVKSEKISTLSSENKIISFKEMNPPDNIKDTKSDIIFFQRSVPGHDNKMQFESSSYEGYFLASEKERDLFKLILKKEDELGDRSIMFTVQNED	0.64
yeast display IL-18 variant K53S, S55Y (ligand) YFGKLESKLSVIRNLNDQVLFIDQGNRPLFEDMTDSDMRDNAPRTIFIISMYSDYQPRGMAVTISVKSEKISTLSSENKIISFKEMNPPDNIKDTKSDIIFFQRSVPGHDNKMQFESSSYEGYFLASEKERDLFKLILKKEDELGDRSIMFTVQNED	0.9

We now examine a further binder.
Item: yeast display IL-18 variant K53H, S55V (ligand) YFGKLESKLSVIRNLNDQVLFIDQGNRPLFEDMTDSDMRDNAPRTIFIISMYHDVQPRGMAVTISVKSEKISTLSSENKIISFKEMNPPDNIKDTKSDIIFFQRSVPGHDNKMQFESSSYEGYFLASEKERDLFKLILKKEDELGDRSIMFTVQNED | Ratio (-BP/+BP), DF-1,000,000: 2.31
